assay: Plasma pharmacokinetics in biliary cancer patients (LC-MS/MS, non-compartmental); type: in vivo, human; details: human, plasma, po, 200 mg, subject 2006; first dose 200 mg oral; read-out: λz (converted)
readout-kind: k el (s⁻¹)
Quick note: give the figure in s⁻¹, leave out the unit.

Task item: Determine its reported k el: NC1(c2ccc(-c3nc4ccn5c(=O)[nH]nc5c4cc3-c3ccccc3)cc2)CCC1
Reply: 3.61e-06

---

Assay: Plasma pharmacokinetics in biliary cancer patients (LC-MS/MS, non-compartmental)
Format: in vivo, human
Details: human, plasma, po, 200 mg, subject 1003; first dose 200 mg oral; read-out: Vz/F
Protocol: Plasma samples were collected from all patients at Week 1 of Cycle 1 immediately prior to dose administration, and at 30 min, 1, 2, 3, 4, 6, 8, 24, 48, and 96 hours after dose administration. […] Plasma samples were also collected immediately prior to the oral intake of MK-2206 tablet(s) on days 8, 15 and 29 (i.e. Cycle 2, Day 1) so that trough pre-dose levels of MK-2206 could be determined in the following studies. […]
readout-kind: Vd/F (L)
Supply the numeric figure in L, leaving out any unit text.

Task item: Indicate its recorded Vd/F; the compound in question is NC1(c2ccc(-c3nc4ccn5c(=O)[nH]nc5c4cc3-c3ccccc3)cc2)CCC1 [MK-2206]
Reply: 989

---

experiment: Plasma pharmacokinetics in biliary cancer patients (LC-MS/MS, non-compartmental); assay type: in vivo, human; details: human, plasma, po, 200 mg, subject 2006; first dose 200 mg oral; read-out: Half-life (converted)
readout-kind: half-life
The reply should read as a number followed by its unit.

Task item: Give the reported value of half-life for this record: NC1(c2ccc(-c3nc4ccn5c(=O)[nH]nc5c4cc3-c3ccccc3)cc2)CCC1
Reply: 52.4 h

---

test: Plasma pharmacokinetics in biliary cancer patients (LC-MS/MS, non-compartmental); type: in vivo, human; settings: human, plasma, po, 200 mg, subject 1004; first dose 200 mg oral
readout-kind: Cmax (ng/mL)
Numeric answer only, unit ng/mL assumed.

Task item: Return the recorded Cmax value; entry: NC1(c2ccc(-c3nc4ccn5c(=O)[nH]nc5c4cc3-c3ccccc3)cc2)CCC1
Reply: 11.1

---

assay: Plasma pharmacokinetics in biliary cancer patients (LC-MS/MS, non-compartmental); assay type: in vivo, human; details: human, plasma, po, 200 mg, subject 1003; first dose 200 mg oral; read-out: Tmax
readout-kind: Tmax (h)
A number alone suffices; assume h.

Task item: Input NC1(c2ccc(-c3nc4ccn5c(=O)[nH]nc5c4cc3-c3ccccc3)cc2)CCC1 [MK-2206] , output reported Tmax.
Reply: 6

---

assay: Plasma pharmacokinetics in biliary cancer patients (LC-MS/MS, non-compartmental); format: in vivo, human; details: human, plasma, po, 200 mg, subject 1002; first dose 200 mg oral; read-out: λz (converted)
readout-kind: k el (s⁻¹)
Give just the number in s⁻¹; leave the unit off.

Task item: Tell me measured k el for NC1(c2ccc(-c3nc4ccn5c(=O)[nH]nc5c4cc3-c3ccccc3)cc2)CCC1 [MK-2206] please.
Reply: 2.5e-06

---

assay: Plasma pharmacokinetics in biliary cancer patients (LC-MS/MS, non-compartmental); type: in vivo, human; conditions: human, plasma, po, 200 mg, subject 1003; first dose 200 mg oral; read-out: Half-life (converted)
readout-kind: half-life (h)
Dear colleague, please return just the value in h, with no unit written.

Task item: Fill in reported half-life for this entry: NC1(c2ccc(-c3nc4ccn5c(=O)[nH]nc5c4cc3-c3ccccc3)cc2)CCC1
Reply: 33.8
